# Tested on: BT-549 breast
# assay.summary: NCI-60 one-dose screen, 48 h (100 = growth as untreated, 0 = no growth, -100 = all killed)
# protocol.conditions: 10 µM unless noted
# Method: Growth inhibition of the BT-549 human tumor cell line is measured as a screen for anti-cancer activity. Cells are grown in 96 well plates and exposed to the test compound for 48 hours. Compounds are tested at a single concentration, which is 10^-5 M for most compounds. The reported endpoint is percent growth (GI% or GIPRCNT), where numbers from 0 - 100% represent growth inhibition, and numbers from -100% - 0 represent cell death. For example, a value of 40 represents 60% growth inhibition. […]
The panel holds about 83,000 compounds, 20% with a hit somewhere; the sample as a whole holds those more often.
readout.type: growth (%)
Answers are plain numbers, in %.

smiles_notation=COc1cc(/C=N\NC(=O)CN2CCN(c3cc4c(cc3F)c(=O)c(C(=O)N/N=C/c3ccc(O)c(OC)c3)cn4C3CC3)CC2)ccc1O value_measured=56
smiles_notation=C/C(=C(/c1ccc(O)cc1)c1ccc(OCCN2CCCC2)cc1)c1ccccc1 value_measured=64
smiles_notation=Cc1cc(-c2nc3ccccc3s2)ccc1NC(=O)COc1ccc(Cl)cc1 value_measured=105

Switching to the query record.
State its growth for this compound: `CC(C)c1c(C(=O)Nc2ccccc2)c(-c2ccccc2)c(-c2ccc(F)cc2)n1CC[C@@H]1CC=CC(=O)O1` -30.6

* * *

# System: T-47D breast
# assay.summary: NCI-60 one-dose screen, 48 h (100 = growth as untreated, 0 = no growth, -100 = all killed)
# protocol.conditions: 10 µM unless noted
Compounds without any hit were thinned out: in the full panel of roughly 83,000, 20% have a hit.
Rule: True for growth not less than 40%, False for anything less.

Kindly determine if growth recorded for `O=[N+]([O-])c1cccc(-c2nc3sccn3c2-c2ccnc(NCCCNS(=O)(=O)c3ccc(F)cc3)n2)c1` is above or exactly 40%. False

Textbook exercise: given the entry CC1=NNC(=O)C1C (stereo unspecified) , state whether its growth is greater than or equal to 40%. True

Identify whether the reported growth of the following compound is 40% or greater: CCN(CC)CC(C)Nc1ccc([N+](=O)[O-])c2sc3ccccc3c(=O)c12 (stereo unspecified) False

* * *

# Tested on: SNB-75 CNS
# assay.summary: NCI-60 one-dose screen, 48 h
# protocol.conditions: 10 µM unless noted
Compounds without any hit were thinned out: in the full panel of roughly 83,000, 20% have a hit. The source made the active and inactive calls. How the source made its calls: active means growth percent below 10; inactive means the rest.
Please reply with one of these outcomes: active, inactive

compound=COc1ccc(-c2c3c(nc4n[nH]c(-c5ccc(Cl)cc5)c24)-c2ccccc2C(=O)C3=O)cc1 category=inactive
compound=CC(=O)C1=C(O)C=C2Oc3c(C(=O)/C=C/c4cc(C(F)(F)F)cc(C(F)(F)F)c4)c(O)c(C)c(O)c3[C@]2(C)C1=O category=active
compound=CSc1nc(NCCO)c(C#N)c(-c2cccc(N)c2)n1 category=inactive

Answer briefly: the call reported for `Cn1c2ccccc2c2c3c(c4c5ccccc5n(CCCCCC#N)c4c21)C(=O)N(O)C3=O` in this assay. inactive

Outcome logged for `CC[n+]1ccc2c(c1)C(=O)c1nccc3c1c-2nc1ccccc13` in this assay: active

// param item: `CN1CCOCCOCCOc2ccccc2NC(=O)c2nc(cnc2N)-c2ccc(cc2)S1(=O)=O` ; yields the recorded call inactive

Please let me know the test result on file for OC(c1cc(-c2ccccc2)nc2ccc(Cl)cc12)C1CCCCN1 (centres undefined) . inactive

Which outcome did this test record for the compound `Cn1c2ccccc2c2c3c(c4c5ccccc5[nH]c4c21)C(=O)N(N)C3=O` ? inactive

Short answer needed: outcome of this test for `COc1ccc(-c2nn(-c3ccccc3)cc2/C=C2\SC(=O)NC2=O)cc1` ? inactive

These data points were gathered from PubChem BioAssay (NCI).
